All figures here come from ChEMBL document CHEMBL1150976.

- target: Eukaryotic elongation factor 2 kinase (Homo sapiens) (UniProt O00418)
- Sequence (O00418 whole entry): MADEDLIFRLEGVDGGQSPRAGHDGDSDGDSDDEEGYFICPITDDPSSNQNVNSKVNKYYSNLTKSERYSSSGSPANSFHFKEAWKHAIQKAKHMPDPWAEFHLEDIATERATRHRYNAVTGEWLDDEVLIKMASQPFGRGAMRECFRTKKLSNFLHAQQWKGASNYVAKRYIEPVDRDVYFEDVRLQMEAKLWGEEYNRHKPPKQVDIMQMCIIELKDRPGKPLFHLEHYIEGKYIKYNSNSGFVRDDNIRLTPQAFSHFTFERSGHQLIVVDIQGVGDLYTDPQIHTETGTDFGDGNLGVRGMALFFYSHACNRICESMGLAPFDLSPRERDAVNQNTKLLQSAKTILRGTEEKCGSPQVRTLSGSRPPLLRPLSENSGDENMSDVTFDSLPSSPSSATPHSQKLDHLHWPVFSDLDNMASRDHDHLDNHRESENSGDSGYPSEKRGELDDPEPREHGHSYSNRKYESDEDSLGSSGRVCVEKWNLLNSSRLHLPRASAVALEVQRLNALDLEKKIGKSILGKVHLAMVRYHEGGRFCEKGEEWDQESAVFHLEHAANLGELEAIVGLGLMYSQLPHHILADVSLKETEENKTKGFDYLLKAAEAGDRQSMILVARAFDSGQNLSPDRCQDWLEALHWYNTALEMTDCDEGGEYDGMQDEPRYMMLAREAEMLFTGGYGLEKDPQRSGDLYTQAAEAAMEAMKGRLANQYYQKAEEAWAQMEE
- method: Percentage EF2K activity remaining in the presence of 0.1uM inhibitor
Would you mind telling me the reported Activity of each entry?
Please give a number only; it is taken to be in %.

Give the reported value of Activity for this record: Cc1n[nH]c2ccc(-c3cncc(OC[C@@H](N)Cc4c[nH]c5ccccc45)c3)cc12 94

Read the entry CC(C)[C@H](CO)Nc1nc(Nc2cccc(Cl)c2)c2ncn(C(C)C)c2n1 and write its reported Activity. 95

Supply Activity value. Item: O=C(NCCCNc1nc(Nc2cccc(NC(=O)N3CCCC3)c2)ncc1I)c1cccs1 93

Identify measured Activity corresponding to Cn1c2ccccc2c2c3c(c4c5ccccc5n(CCC#N)c4c21)CNC3=O 100

Recall and state the measured Activity for CC(C)CCN1c2nc(Nc3cc(F)c(O)c(F)c3)ncc2N(C)C(=O)C1C (configuration not stated) . 88

Find the measured Activity of Cn1cc(C2=C(c3cn(CCCSC(=N)N)c4ccccc34)C(=O)NC2=O)c2ccccc21 and report it. 101

Indicate the recorded Activity value for this compound: CN(C)C[C@@H]1CCn2cc(c3ccccc32)C2=C(C(=O)NC2=O)c2cn(c3ccccc23)CCO1 90

###

Exercise: for every item that follows, state its recorded IC50.
- target: Serine/threonine-protein kinase pim-3 (Homo sapiens)
- method: Inhibition of PIM3 in the presence of 20uM ATP

Note down IC50 recorded for COc1ccc2c(c1)[nH]c1c(C)nccc12 [HARMINE] 4300 nM (antagonist)

Indicate the recorded IC50 value for this compound: O=C(Nc1cc(Cl)cc2c1[nH]c1cnccc12)c1cccnc1 880 nM (antagonist)

Dear colleague, please send me the reported IC50 for O=C1Nc2ccc(I)cc2C1=Cc1cc(Br)c(O)c(Br)c1 [GW305074X] when you can. 100 nM (antagonist)

Give the reported value of IC50 for this record: O=c1cc(N2CCOCC2)oc2c(-c3ccccc3)cccc12 [LY-294002] 1400 nM (antagonist)

###

- target: Cyclin-G-associated kinase (Homo sapiens) (UniProt O14976)
- Sequence (O14976 whole entry): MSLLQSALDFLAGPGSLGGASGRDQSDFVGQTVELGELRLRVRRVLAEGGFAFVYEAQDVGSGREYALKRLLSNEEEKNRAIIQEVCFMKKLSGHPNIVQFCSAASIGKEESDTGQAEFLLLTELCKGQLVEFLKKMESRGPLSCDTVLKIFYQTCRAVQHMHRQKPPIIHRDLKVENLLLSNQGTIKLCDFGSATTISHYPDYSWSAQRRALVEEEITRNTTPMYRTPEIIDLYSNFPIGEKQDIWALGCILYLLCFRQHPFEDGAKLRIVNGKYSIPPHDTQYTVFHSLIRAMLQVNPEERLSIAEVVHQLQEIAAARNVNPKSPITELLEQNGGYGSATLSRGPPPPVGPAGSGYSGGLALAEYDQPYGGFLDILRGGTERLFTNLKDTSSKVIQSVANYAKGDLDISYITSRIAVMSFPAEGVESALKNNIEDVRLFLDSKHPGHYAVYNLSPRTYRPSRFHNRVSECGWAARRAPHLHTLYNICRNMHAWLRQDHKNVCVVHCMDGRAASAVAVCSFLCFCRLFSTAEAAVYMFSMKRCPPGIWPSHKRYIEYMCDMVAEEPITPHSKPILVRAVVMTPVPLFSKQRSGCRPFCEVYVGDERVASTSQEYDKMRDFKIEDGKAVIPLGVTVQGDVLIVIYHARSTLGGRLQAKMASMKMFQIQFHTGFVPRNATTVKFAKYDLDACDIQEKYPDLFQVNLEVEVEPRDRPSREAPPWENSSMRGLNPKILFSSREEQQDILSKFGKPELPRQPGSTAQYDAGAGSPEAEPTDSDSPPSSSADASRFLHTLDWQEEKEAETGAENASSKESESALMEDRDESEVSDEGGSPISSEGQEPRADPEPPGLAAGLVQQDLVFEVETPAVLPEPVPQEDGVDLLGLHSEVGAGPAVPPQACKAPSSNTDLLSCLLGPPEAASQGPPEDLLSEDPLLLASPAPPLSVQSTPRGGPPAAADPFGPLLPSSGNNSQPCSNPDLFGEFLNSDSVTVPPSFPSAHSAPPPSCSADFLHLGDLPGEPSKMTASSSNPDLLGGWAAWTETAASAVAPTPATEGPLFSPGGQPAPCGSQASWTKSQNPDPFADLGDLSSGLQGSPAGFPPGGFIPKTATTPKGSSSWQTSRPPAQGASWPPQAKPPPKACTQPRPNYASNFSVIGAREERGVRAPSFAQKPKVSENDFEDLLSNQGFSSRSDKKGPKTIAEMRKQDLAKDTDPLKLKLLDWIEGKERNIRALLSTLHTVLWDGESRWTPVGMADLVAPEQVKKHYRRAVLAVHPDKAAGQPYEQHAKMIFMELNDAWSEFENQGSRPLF
- method: Percentage GAK activity remaining in the presence of 1uM inhibitor
- condition info: filed as antagonist
Quick rule for you: Activity under 30% gets met, anything else gets not met.

A record lists C[S+]([O-])c1ccc(-c2nc(-c3ccc(F)cc3)c(-c3ccncc3)[nH]2)cc1 (stereo unspecified) . Is its Activity below 30%? met

Strictly below 30% in Activity? O=C1Nc2ccc(I)cc2C1=Cc1cc(Br)c(O)c(Br)c1 [GW305074X] not met

Would you kindly verify if Activity of CC(C)(C)n1nc(Cc2cccc3ccccc23)c2c(N)ncnc21 is strictly less than 30%? not met

Consider the molecule CC(C)(C)n1nc(-c2ccc(Cl)cc2)c2c(N)ncnc21 . Is its Activity strictly less than 30%? met

For this molecule, is Activity lower than 30%? Cc1ccc(-c2nn(C(C)(C)C)c3ncnc(N)c23)cc1 met

Does the reported Activity of Oc1ccc(-c2nc(-c3ccc(F)cc3)c(-c3ccncc3)[nH]2)cc1 stay below 30%? met

###

- target: Serine/threonine-protein kinase Chk1 (Homo sapiens) (UniProt O14757)
- Sequence (O14757 whole entry): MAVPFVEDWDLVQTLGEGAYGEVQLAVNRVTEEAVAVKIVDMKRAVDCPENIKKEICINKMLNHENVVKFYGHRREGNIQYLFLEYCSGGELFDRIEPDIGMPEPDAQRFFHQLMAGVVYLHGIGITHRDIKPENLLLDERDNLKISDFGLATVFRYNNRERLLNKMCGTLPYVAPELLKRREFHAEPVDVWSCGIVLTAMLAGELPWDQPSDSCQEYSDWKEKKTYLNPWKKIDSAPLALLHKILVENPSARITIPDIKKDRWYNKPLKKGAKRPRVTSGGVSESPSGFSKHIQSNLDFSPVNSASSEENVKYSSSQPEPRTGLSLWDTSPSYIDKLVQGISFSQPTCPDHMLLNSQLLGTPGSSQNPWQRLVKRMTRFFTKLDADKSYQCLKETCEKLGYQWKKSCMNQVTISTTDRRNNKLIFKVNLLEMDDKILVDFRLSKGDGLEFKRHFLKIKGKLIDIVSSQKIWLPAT
- method: Percentage CHK1 activity remaining in the presence of 0.1uM inhibitor
measured quantity: Activity (%)
State the answer as a number, implicitly in %.

Identify measured Activity corresponding to CC(C)CCN1c2nc(Nc3cc(F)c(O)c(F)c3)ncc2N(C)C(=O)C1C (stereo not given) 73

Identify the reported Activity for the following entry. Cc1n[nH]c2ccc(-c3cncc(OC[C@@H](N)Cc4c[nH]c5ccccc45)c3)cc12 99

Please look at this compound and report its Activity: CN(C)C[C@@H]1CCn2cc(c3ccccc32)C2=C(C(=O)NC2=O)c2cn(c3ccccc23)CCO1 71

Give Activity for CC(C)[C@H](CO)Nc1nc(Nc2cccc(Cl)c2)c2ncn(C(C)C)c2n1 [PURVALANOLA] 95

Let me know recorded Activity for Cn1cc(C2=C(c3cn(CCCSC(=N)N)c4ccccc34)C(=O)NC2=O)c2ccccc21 , thanks. 59
